Sourced from patent US20200115357A1

studyTarget: LXRβ full length (FL) (Homo sapiens, UniProt P55055, DUP175-175)
Construct: the full length (FL) proteins of LXRα (amino acids 1-447); NP005684; NP009052
Sequence (P55055 with tags, fused parts or gaps DUP175-175): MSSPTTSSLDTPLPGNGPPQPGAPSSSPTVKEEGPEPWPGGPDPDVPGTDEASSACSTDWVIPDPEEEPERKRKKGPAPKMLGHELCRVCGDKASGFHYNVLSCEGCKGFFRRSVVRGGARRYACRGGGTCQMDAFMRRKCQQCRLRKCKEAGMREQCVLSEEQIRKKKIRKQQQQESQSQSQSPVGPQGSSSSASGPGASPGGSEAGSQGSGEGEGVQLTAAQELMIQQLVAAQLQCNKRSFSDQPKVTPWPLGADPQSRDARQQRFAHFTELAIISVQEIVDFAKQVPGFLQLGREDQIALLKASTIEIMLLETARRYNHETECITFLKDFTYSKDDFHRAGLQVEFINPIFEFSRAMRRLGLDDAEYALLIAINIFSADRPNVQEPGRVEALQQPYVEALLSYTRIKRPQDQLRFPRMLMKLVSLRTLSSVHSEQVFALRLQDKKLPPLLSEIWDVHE
assayInfo: LXR Gal4 reporter transient transfection assay (M2H), Gal4β FL
setupConditions: HEK293 cells; read-out: M2H Gal4β FL activity range (EC50)
pEC50: −log10 of the molar value.
experimentalReadout: pEC50

                                   molecule  experimentalreadout        result
0  Cc1cc(C)c(S(=O)(=O)N(Cc2ccc(C(F)(F)F)o2)Cc2sc(-c3cccc(C(C)(C)C(=O)O)c3)cc2Cl)c(C)c1 [10/6]                pEC50        > 7.00
1  Cc1cc(C)c(S(=O)(=O)N(Cc2ccc(-c3cccc(S(=O)(=O)CC(=O)O)c3)cc2)Cc2ccc(C(F)(F)F)o2)c(C)c1 [Example 5]                pEC50  6.00 to 7.00
2  COc1cc(-c2cccc(C(C)(C)C(=O)O)c2)ccc1CN(Cc1ccc(C(F)(F)F)o1)S(=O)(=O)c1c(C)cc(C)cc1C [10/4]                pEC50        > 7.00
3  O=C(O)CS(=O)(=O)c1cccc(-c2ccc(CN(Cc3ccc(C(F)(F)F)o3)S(=O)(=O)c3c(Cl)cccc3C(F)(F)F)cc2)c1 [10/3]                pEC50  6.00 to 7.00
4  Cc1cc(C)c(S(=O)(=O)N(Cc2ccc(-c3cccc(S(=O)(=O)CC(=O)O)c3)cc2)Cc2ccc(C)o2)c(C)c1 [5/5]                pEC50  6.00 to 7.00
5  Cc1cc(C)c(S(=O)(=O)N(Cc2ccc(-c3cccc(C(C)(C)C(=O)O)c3)cc2)c2ccc(C(F)(F)F)o2)c(C)c1 [10/7]                pEC50        > 7.00
6  Cc1ccc2ccccc2c1S(=O)(=O)N(Cc1ccc(-c2cccc(S(=O)(=O)CC(=O)O)c2)cc1)Cc1ccc(C#N)o1 [Example 5/7]                pEC50  6.00 to 7.00

###

studyTarget: LXRα full length (FL) (Homo sapiens)
Construct: the full length (FL) proteins of LXRα (amino acids 1-447); NP005684; expressed in transfected cells; host or cells: HEK293
Sequence (Q13133 1-447): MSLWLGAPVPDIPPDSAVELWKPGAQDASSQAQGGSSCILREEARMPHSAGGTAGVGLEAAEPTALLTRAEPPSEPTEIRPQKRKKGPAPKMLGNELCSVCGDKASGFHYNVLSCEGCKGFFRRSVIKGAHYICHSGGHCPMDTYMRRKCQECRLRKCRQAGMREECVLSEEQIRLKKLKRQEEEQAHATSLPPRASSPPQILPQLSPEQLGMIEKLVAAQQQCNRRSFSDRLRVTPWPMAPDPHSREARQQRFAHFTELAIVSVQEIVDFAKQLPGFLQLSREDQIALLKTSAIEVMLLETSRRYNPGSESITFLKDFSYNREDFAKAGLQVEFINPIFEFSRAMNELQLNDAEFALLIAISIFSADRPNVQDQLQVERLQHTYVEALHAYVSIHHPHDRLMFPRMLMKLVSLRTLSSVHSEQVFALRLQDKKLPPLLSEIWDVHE
assayInfo: LXR Gal4 reporter transient transfection assay (M2H), Gal4α FL
Assay type: cell-based
setupConditions: HEK293 cells; read-out: M2H Gal4α FL activity range (EC50)
experimentalReadout: EC50

>>> print(df.to_string())
                                   compound                           studytarget  experimentalreadout       result
0  Cc1ccc2cccnc2c1S(=O)(=O)N(Cc1ccc(-c2cccc(C(C)(C)C(=O)NS(C)(=O)=O)c2)cc1)Cc1ccc(C(F)(F)F)o1 [Example 29]  LXRα full length (FL) (Homo sapiens)                 EC50  0.1 to 1 µM
1  Cc1cc(C)c(S(=O)(=O)N(Cc2ccc(-c3cccc(S(=O)(=O)CC(=O)O)c3)cc2)Cc2ccc(C(F)(F)F)o2)c(C)c1 [Example 5]  LXRα full length (FL) (Homo sapiens)                 EC50   1 to 10 µM
2  Cc1nn2cccnc2c1S(=O)(=O)N(Cc1ccc(-c2cccc(C(C)(C)C(=O)O)c2)cc1)Cc1ccc(C(F)(F)F)o1 [10/20]  LXRα full length (FL) (Homo sapiens)                 EC50  0.1 to 1 µM
